These data points were gathered from paper PMC3961306.

- Measured on: panel of more than 300 wild-type and mutant kinases (313 kinase panel) (Homo sapiens, UniProt P07949, Y791F)
- Sequence (P07949 29-1114 Y791F): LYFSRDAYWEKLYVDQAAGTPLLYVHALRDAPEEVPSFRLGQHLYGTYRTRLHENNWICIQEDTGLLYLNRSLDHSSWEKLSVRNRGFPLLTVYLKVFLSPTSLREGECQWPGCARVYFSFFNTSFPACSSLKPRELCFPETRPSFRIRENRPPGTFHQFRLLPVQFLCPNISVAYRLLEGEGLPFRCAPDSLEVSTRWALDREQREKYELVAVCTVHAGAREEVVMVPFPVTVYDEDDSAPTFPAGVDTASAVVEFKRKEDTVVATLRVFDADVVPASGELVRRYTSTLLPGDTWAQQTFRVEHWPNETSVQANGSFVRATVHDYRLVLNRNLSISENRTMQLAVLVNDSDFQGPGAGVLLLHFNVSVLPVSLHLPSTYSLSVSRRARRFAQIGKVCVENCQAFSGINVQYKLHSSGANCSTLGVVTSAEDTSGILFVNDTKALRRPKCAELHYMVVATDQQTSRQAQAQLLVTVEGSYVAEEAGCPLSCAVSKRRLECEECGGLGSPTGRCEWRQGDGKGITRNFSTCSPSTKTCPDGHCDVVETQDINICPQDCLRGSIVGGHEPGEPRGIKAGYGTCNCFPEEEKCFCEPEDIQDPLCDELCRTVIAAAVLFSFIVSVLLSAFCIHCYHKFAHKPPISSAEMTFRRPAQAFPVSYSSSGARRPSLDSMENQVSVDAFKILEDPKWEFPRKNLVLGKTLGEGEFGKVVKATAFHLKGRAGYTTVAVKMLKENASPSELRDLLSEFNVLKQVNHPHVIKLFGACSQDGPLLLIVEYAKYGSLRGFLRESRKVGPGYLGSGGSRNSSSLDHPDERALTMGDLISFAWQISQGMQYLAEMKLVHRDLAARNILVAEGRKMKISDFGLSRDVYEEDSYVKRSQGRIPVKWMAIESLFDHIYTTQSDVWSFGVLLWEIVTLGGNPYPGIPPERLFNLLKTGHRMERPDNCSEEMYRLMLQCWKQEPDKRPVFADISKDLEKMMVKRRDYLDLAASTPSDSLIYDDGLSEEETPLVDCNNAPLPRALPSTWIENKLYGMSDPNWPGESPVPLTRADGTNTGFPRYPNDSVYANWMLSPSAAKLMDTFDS
- Test method notes: Kinase profiling in a biochemical assay panel (mobility shift assays and ELISA), %-inhibition at 1 μM; selectivity entropy
- Setup conditions: kinase RET(Y791F); 1 μM
Record form. Attribute: %-inhibition of RET(Y791F). Fill in for each entry.
One number for each entry, in %.

Examples from the recorded data:
>>> print(df.to_string())
                            smiles_notation  observed_measurement
0  CCCS(=O)(=O)Nc1ccc(F)c(C(=O)c2c[nH]c3ncc(-c4ccc(Cl)cc4)cc23)c1F                    30
1          O=S(=O)(c1cccc2cnccc12)N1CCCNCC1                     1

// next entry
Request: Write down %-inhibition of RET(Y791F) measured for item COc1cc(Nc2c(C#N)cnc3cc(OCCCN4CCN(C)CC4)c(OC)cc23)c(Cl)cc1Cl
Response: 93
